Hey, just so you know, these numbers are from paper PMC10397247.

target.or.test.system: T1, O4
T1 chain: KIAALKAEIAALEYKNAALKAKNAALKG
run.description: two-hybrid library CC0;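 further: natural log of median RNA to DNA barcode read ratio; higher means stronger binding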
stated.conditions: mean of both orientations
So I've got a bunch of binders here, and I need their interaction score values.
Give bare numbers.

Reference set, count: 5
binder: KNAALKAENAALEYKIAALKAKIAALKG [O10]
interaction score: -2.63
--
binder: ENAALEAKNAALKYKIAALKAKIAALKG [O2]
interaction score: -2.74
--
binder: KNAALKAKIAALKYKNAALKAEIAALEG [O13]
interaction score: -2.72
--
binder: ENAALEAEIAALEYENAALEAKIAALKG [O14]
interaction score: -2.52
--
binder: EIAALEAKIAALKYKNAALKAKNAALKG [O12]
interaction score: -2.22

// for each binder below, give its interaction score
1. KIAALKAKNAALKYEIAALEAKNAALKG [O16]
2. KNAALKAENAALEYEIAALEAEIAALEG [O1]
3. EIAALEAKIAALKYENAALEAENAALEG [O3]
4. EIAALEAENAALEYKIAALKAENAALEG [O15]
5. KIAALKAEIAALEYKNAALKAKNAALKG [O4]
6. KIAALKAEIAALEYENAALEAENAALEG [O11]

Result string:
1: -2.71; 2: -2.68; 3: 1.48; 4: -2.54; 5: -2.65; 6: 0.197
